Listing: melting point of selected compounds

Worked examples, 3 compounds total:
compound	melting point
Oc1ccc(OCCCNCC(O)COc2ccc(OCCOC3CCCC3)cc2)cc1 (stereo not drawn) (hydrate or solvate) [65f]	136 °C
Cc1ccccc1NC(=O)NCCNCC(O)COc1ccc(OCCOC2CCCC2)cc1 (stereo not drawn) [47b]	114 to 115 °C
O=C(NCCNCC(O)COc1ccc(OCCOC2CCCC2)cc1)c1cccc(F)c1 (stereo not drawn) [54h]	85 to 86 °C

// query For the compound shown here, O=C(NCCNCC(O)COc1ccc(OCCOC2CCCC2)cc1)Nc1ccc(Cl)cc1 (stereo not drawn) [47m] , give the reported melting point.
// result 133 to 140 °C

====

Target: human beta3-adrenoceptor (Homo sapiens, UniProt P13945)
Construct: expressed in transfected cells; host or cells: CHO cells
Sequence (P13945 whole entry): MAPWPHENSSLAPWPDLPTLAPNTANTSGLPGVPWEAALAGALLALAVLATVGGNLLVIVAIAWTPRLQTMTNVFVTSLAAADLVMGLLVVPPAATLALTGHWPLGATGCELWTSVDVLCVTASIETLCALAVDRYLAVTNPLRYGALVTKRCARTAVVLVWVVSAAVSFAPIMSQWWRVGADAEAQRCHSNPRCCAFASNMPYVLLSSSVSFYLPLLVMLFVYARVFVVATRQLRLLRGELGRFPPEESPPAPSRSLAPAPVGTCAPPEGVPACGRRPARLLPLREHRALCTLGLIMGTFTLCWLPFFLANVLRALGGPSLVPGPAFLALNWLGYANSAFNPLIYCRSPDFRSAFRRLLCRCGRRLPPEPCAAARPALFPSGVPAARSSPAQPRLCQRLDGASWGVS
Experiment: 3H-CGP12177 whole-cell binding, CHO cells expressing human beta3-adrenoceptor
Details: 3H-CGP 12177 whole cell binding, log KD, mean ± s.e.mean, read-out: Beta 3 Log KD (converted)
Listing: log10(Kd) of selected compounds
Field: value | Transform: log10 | Quantity: Kd | Unit: µM

Worked examples, 6 compounds total:
compound	target_under_test	log10(Kd)
O=C(NCCNCC(O)COc1ccc(OCCOC2CCCC2)cc1)Nc1ccc(O)cc1 (stereo not shown) [47v]	human beta3-adrenoceptor (Homo sapiens, UniProt P13945)	0.92
O=C(NCCNCC(O)COc1ccc(OCCOC2CCCC2)cc1)Nc1ccc(C(F)(F)F)cc1 (stereo not shown) [47s]	human beta3-adrenoceptor (Homo sapiens, UniProt P13945)	1.07
O=S(=O)(Cc1ccccc1)NCCNCC(O)COc1ccc(OCCOC2CCCC2)cc1 (stereo not shown)	human beta3-adrenoceptor (Homo sapiens, UniProt P13945)	1.28
COc1ccc(NC(=O)NCCNCC(O)COc2ccc(OCCOC3CCCC3)cc2)cc1 (stereo not shown) [47g]	human beta3-adrenoceptor (Homo sapiens, UniProt P13945)	1.30
O=C(NCCNCC(O)COc1ccc(OCCOC2CCCC2)cc1)c1cccc(O)c1 (stereo not shown) [54e]	human beta3-adrenoceptor (Homo sapiens, UniProt P13945)	0.04
O=C(NCCNCC(O)COc1ccc(OCCOCC2CC2)cc1)Nc1ccc(O)cc1 (stereo not shown) [46a]	human beta3-adrenoceptor (Homo sapiens, UniProt P13945)	1.39

// query Which measured log10(Kd) belongs to O=C(NCCNCC(O)COc1ccc(OCCOC2CCCC2)cc1)Nc1ccc(Cl)cc1 (stereo not shown) [47m] , tested on human beta3-adrenoceptor (Homo sapiens, UniProt P13945)?
// result 1.13

// query Which measured log10(Kd) belongs to O=C(Nc1ccccc1)OCCNCC(O)COc1ccc(OCCOC2CCCC2)cc1 (stereo not shown) , tested on human beta3-adrenoceptor (Homo sapiens, UniProt P13945)?
// result 0.02

// query Which measured log10(Kd) belongs to O=C(NCCNCC(O)COc1ccc(OCCOC2CCCC2)cc1)Nc1ccccc1Cl (stereo not shown) [47k] , tested on human beta3-adrenoceptor (Homo sapiens, UniProt P13945)?
// result 1.27

// query Which measured log10(Kd) belongs to O=C(NCCNCC(O)COc1ccc(OCCOC2CCCC2)cc1)Nc1ccccc1 (stereo not shown) [47a] , tested on human beta3-adrenoceptor (Homo sapiens, UniProt P13945)?
// result 1.38

// query Which measured log10(Kd) belongs to O=C(NCCNCC(O)COc1ccc(OCCOC2CCCC2)cc1)c1ccccc1O (stereo not shown) [54d] , tested on human beta3-adrenoceptor (Homo sapiens, UniProt P13945)?
// result 0.66

====

Target: human beta2-adrenoceptor (Homo sapiens)
Construct: expressed in transfected cells; host or cells: CHO cells
Sequence (P07550 whole entry): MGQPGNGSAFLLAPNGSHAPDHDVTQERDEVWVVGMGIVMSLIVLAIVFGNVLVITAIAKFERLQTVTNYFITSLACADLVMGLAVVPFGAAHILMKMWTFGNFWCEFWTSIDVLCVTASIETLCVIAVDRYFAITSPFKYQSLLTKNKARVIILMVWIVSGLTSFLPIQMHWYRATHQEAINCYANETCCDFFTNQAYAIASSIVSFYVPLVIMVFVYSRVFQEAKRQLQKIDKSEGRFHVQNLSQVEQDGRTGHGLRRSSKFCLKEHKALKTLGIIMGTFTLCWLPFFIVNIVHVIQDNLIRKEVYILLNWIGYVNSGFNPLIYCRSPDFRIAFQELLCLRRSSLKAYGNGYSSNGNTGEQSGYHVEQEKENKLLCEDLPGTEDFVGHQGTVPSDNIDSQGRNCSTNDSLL
Assay: 3H-CGP12177 whole-cell binding, CHO cells expressing human beta2-adrenoceptor
Details: 3H-CGP 12177 whole cell binding, mean ± s.e.mean
outcome_measure: Beta 2 Log KD

Worked examples, 3 compounds total:
compound	target_under_test	outcome_measure	result
CC(=O)Oc1ccc(C(=O)NCCNCC(O)COc2ccc(OCCOC3CCCC3)cc2)cc1 (centres unmarked) [62e]	human beta2-adrenoceptor (Homo sapiens)	Beta 2 Log KD	−6.27 ± 0.03
O=C(NCCNCC(O)COc1ccc(OCCOC2CCCC2)cc1)Nc1ccccc1F (centres unmarked) [47h]	human beta2-adrenoceptor (Homo sapiens)	Beta 2 Log KD	−5.94 ± 0.04
O=C(NCCNCC(O)COc1ccc(OCCOC2CCCC2)cc1)Nc1ccc(Cl)cc1 (centres unmarked) [47m]	human beta2-adrenoceptor (Homo sapiens)	Beta 2 Log KD	−5.91 ± 0.86

// query For the compound shown here, Cc1ccccc1NC(=O)NCCNCC(O)COc1ccc(OCCOC2CCCC2)cc1 (centres unmarked) [47b] , give the reported Beta 2 Log KD.
// result −6.27 ± 0.02

// query For the compound shown here, COc1cccc(NC(=O)NCCNCC(O)COc2ccc(OCCOC3CCCC3)cc2)c1 (centres unmarked) [47f] , give the reported Beta 2 Log KD.
// result −6.05 ± 0.03

====

Target: human beta2-adrenoceptor (Homo sapiens)
Construct: expressed in transfected cells; host or cells: CHO cells
Assay: 3H-CGP12177 whole-cell binding, CHO cells expressing human beta2-adrenoceptor
Conditions: 3H-CGP 12177 whole cell binding, log KD, mean ± s.e.mean, read-out: Beta 2 Log KD (converted)
Listing: Kd of selected molecules
Provide the reading as a plain figure in nM.

Worked examples, 3 molecules total:
molecule	Kd / nM
Cc1ccc(CC(=O)NCCNCC(O)COc2ccc(OCCOC3CCCC3)cc2)cc1 (stereo not shown) [62r]	776
NC(=O)c1cc(OCCNCC(O)COc2ccc(OCCOC3CCCC3)cc2)ccc1O (stereo not shown) [compound 72]	25.1
O=C(Cc1cccc(Cl)c1)NCCNCC(O)COc1ccc(OCCOC2CCCC2)cc1 (stereo not shown) [62k]	135

# input for lookup
// query For the molecule shown here, O=C(Cc1ccccc1O)NCCNCC(O)COc1ccc(OCCOC2CCCC2)cc1 (stereo not shown) [62u] , give the reported Kd.
// result 138

====

Molecular target: human beta2-adrenoceptor (Homo sapiens)
Construct: expressed in transfected cells; host or cells: CHO cells
Assay: 3H-CGP12177 whole-cell binding, CHO cells expressing human beta2-adrenoceptor
Details: 3H-CGP 12177 whole cell binding, log KD, mean ± s.e.mean, read-out: Beta 2 Log KD (converted)
Listing: Kd of selected molecules
Provide the reading as a plain figure in nM.

molecule	target_under_test	unit_abbrev	Kd
Nc1ccc(NC(=O)NCCNCC(O)COc2ccc(OCCOC3CCCC3)cc2)cc1 (stereo not drawn) [60c]	human beta2-adrenoceptor (Homo sapiens)	nM	3630
O=C(NCCNCC(O)COc1ccc(OCCOC2CCCC2)cc1)Nc1ccc(F)c(F)c1 (stereo not drawn) [54a]	human beta2-adrenoceptor (Homo sapiens)	nM	1320
O=C(NCCNCC(O)COc1ccc(OCCOC2CCCC2)cc1)Nc1ccccc1 (stereo not drawn) [47a]	human beta2-adrenoceptor (Homo sapiens)	nM	3020
O=C(NCCNCC(O)COc1ccc(OCCOC2CCCC2)cc1)Nc1ccc(O)c(F)c1 (stereo not drawn) [compound 54]	human beta2-adrenoceptor (Homo sapiens)	nM	2570
O=C(NCCNCC(O)COc1ccc(OCCOCC2CC2)cc1)Nc1cccc(Cl)c1 (stereo not drawn) [46e]	human beta2-adrenoceptor (Homo sapiens)	nM	5750
O=C(NCCNCC(O)COc1ccc(OCCOCCc2ccc(F)cc2)cc1)Nc1ccc(O)cc1 (stereo not drawn) [46b]	human beta2-adrenoceptor (Homo sapiens)	nM	1020
O=C(NCCNCC(O)COc1ccc(OCCOC2CCCC2)cc1)c1cccc(O)c1 (stereo not drawn) [54e]	human beta2-adrenoceptor (Homo sapiens)	nM	282

// query For the molecule shown here, O=C(NCCNCC(O)COc1ccc(OCCOC2CCCC2)cc1)Nc1ccc(O)c(Cl)c1 (stereo not drawn) [54c] , give the reported Kd.
// result 1020

====

Molecular target: beta1-adrenoceptor (Homo sapiens)
Sequence (P08588 whole entry): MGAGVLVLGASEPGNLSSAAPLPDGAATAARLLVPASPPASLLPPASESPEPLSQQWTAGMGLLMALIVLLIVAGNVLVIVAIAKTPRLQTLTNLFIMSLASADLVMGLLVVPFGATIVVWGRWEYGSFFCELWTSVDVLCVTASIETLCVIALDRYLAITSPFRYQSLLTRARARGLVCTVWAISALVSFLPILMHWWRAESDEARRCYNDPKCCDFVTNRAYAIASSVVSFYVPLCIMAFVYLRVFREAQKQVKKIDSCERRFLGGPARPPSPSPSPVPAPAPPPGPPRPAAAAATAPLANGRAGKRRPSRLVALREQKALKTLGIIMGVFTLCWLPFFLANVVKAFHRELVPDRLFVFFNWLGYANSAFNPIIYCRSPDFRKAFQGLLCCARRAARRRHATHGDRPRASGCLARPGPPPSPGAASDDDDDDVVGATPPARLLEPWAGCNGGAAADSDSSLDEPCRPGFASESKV
Assay: 3H-CGP12177 whole-cell binding, CHO cells expressing human beta1-adrenoceptor
Parameters: expressed in transfected cells; host or cells: CHO cells
Settings: 3H-CGP 12177 whole cell binding, log KD, mean ± s.e.mean, read-out: Beta 1 Log KD (converted)
Reported Kd maps to class as: Low: < 10 nM; Medium: ≥ 10 nM and < 30 nM; High: ≥ 30 nM

Field: example entries. Status: answers known.
compound	category
COc1cc(C(=O)NCCNCC(O)COc2ccc(OCCOC3CCCC3)cc2)ccc1O (stereo not shown) [62f]	Low
COC(=O)c1ccc(NC(=O)NCCNCC(O)COc2ccc(OCCOC3CCCC3)cc2)cc1 (stereo not shown) [47z]	High
O=C(NCCNCC(O)COc1ccc(OCCOC2CCCC2)cc1)c1ccccc1F (stereo not shown) [54g]	High
OC(CNCCOc1ccccc1-c1ccccc1)COc1ccc(OCCOC2CCCC2)cc1 (stereo not shown) [65c]	High
CCCOCCOc1ccc(OCC(O)CNCCNC(=O)Nc2ccc(O)cc2)cc1 (stereo not shown) [46n]	High

// query Assign a category based on measured Kd for CC(C)OCCOc1ccc(OCC(O)CNCCNC(=O)Nc2cccc(Cl)c2)cc1 (stereo not shown) [46k] and give only the class name.
// result Medium

// query Assign a category based on measured Kd for Cc1ccccc1CC(=O)NCCNCC(O)COc1ccc(OCCOC2CCCC2)cc1 (stereo not shown) [62p] and give only the class name.
// result Low

// query Assign a category based on measured Kd for O=C(NCCNCC(O)COc1ccc(OCCOC2CCCC2)cc1)Nc1ccc([N+](=O)[O-])cc1 (stereo not shown) [47w] and give only the class name.
// result Medium

// query Assign a category based on measured Kd for COc1ccc(NC(=O)NCCNCC(O)COc2ccc(OCCOC3CCCC3)cc2)cc1Cl (stereo not shown) [54b] and give only the class name.
// result Medium

// query Assign a category based on measured Kd for O=C(NCCNCC(O)COc1ccc(OCCOC2CC2)cc1)Nc1cccc(Cl)c1 (stereo not shown) [46o] and give only the class name.
// result Medium

// query Assign a category based on measured Kd for COc1cccc(CC(=O)NCCNCC(O)COc2ccc(OCCOC3CCCC3)cc2)c1 (stereo not shown) [62s] and give only the class name.
// result Medium

// query Assign a category based on measured Kd for NC(=O)c1cccc(OCCNCC(O)COc2ccc(OCCOC3CCCC3)cc2)c1 (stereo not shown) [67b] and give only the class name.
// result Medium

// query Assign a category based on measured Kd for O=C(NCCNCC(O)COc1ccc(OCCOC2CCCC2)cc1)Nc1ccc(O)c(Cl)c1 (stereo not shown) [54c] and give only the class name.
// result Low

// query Assign a category based on measured Kd for CCOCCOc1ccc(OCC(O)CNCCNC(=O)Cc2ccccc2O)cc1 (stereo not shown) [46g] and give only the class name.
// result High

// query Assign a category based on measured Kd for Nc1ccccc1C(=O)NCCNCC(O)COc1ccc(OCCOC2CCCC2)cc1 (stereo not shown) [62b] and give only the class name.
// result Medium

// query Assign a category based on measured Kd for OC(CNCCNC(=S)Nc1ccccc1)COc1ccc(OCCOC2CCCC2)cc1 (stereo not shown) and give only the class name.
// result High

// query Assign a category based on measured Kd for COc1ccc(OCCNCC(O)COc2ccc(OCCOC3CCCC3)cc2)cc1 (stereo not shown) [67e] and give only the class name.
// result Low

Data origin: patent US20130261178A1
